tested on: HOP-92; assay: Cytotoxicity against human HOP92 cells after 72 hrs by MTT assay; assay type: functional, cell-based; details: HOP-92, 72 h
measured.endpoint: IC50 (µM)
Only the number, expressed in µM, is required.

Give the reported value of IC50 for this record: CN(C)Cc1c(O)ccc2oc(Cc3ccccc3)cc12 40

----------
test system: DU-145; assay: Cytotoxicity against human DU145 cells after 72 hrs by MTT assay; format: functional, cell-based; conditions: DU-145, 72 h
Below, each entry is listed with its recorded pIC50.
Bear in mind: pIC50 is minus log10 of a mol/L concentration; give just that figure.

Some compounds with recorded pIC50:
Give the reported value of pIC50 for this record: CO[C@H]1C[C@@H]2CC[C@@H](C)[C@@](O)(O2)C(=O)C(=O)N2CCCC[C@H]2C(=O)O[C@H]([C@H](C)C[C@@H]2CC[C@@H](OCCO)[C@H](OC)C2)CC(=O)[C@H](C)/C=C(\C)[C@@H](O)[C@@H](OC)C(=O)[C@H](C)C[C@H](C)/C=C/C=C/C=C/1C [EVEROLIMUS] 5.10

Give the reported value of pIC50 for this record: COc1cccc2cc(-c3nc([C@H]4CC[C@H](C(=O)O)CC4)n4ncnc(N)c34)[nH]c12 [OSI-027] 5.39

Continuing:
Give the reported value of pIC50 for this record: Oc1ccc2oc(Cc3ccccc3)cc2c1CN1CCC(N2CCCCC2)CC1 4.70

Give the reported value of pIC50 for this record: Oc1ccc2oc(-c3ccccc3)cc2c1CN1CCC(N2CCCCC2)CC1 4.89

----------
test system: OVCAR-3; test: Cytotoxicity against human OVCAR3 cells after 72 hrs by MTT assay; format: functional, cell-based; conditions: OVCAR-3, 72 h
measured.endpoint: pIC50
Bear in mind: pIC50 is minus log10 of a mol/L concentration; give just that figure.

Some compounds with recorded pIC50:
Give the reported value of pIC50 for this record: Oc1ccc2oc(-c3ccccc3)cc2c1CN1CCC(N2CCCCC2)CC1 4.66

Give the reported value of pIC50 for this record: COc1cccc2cc(-c3nc([C@H]4CC[C@H](C(=O)O)CC4)n4ncnc(N)c34)[nH]c12 5.09

Give the reported value of pIC50 for this record: Oc1ccc2oc(Cc3ccccc3)cc2c1CN1CCC(N2CCCCC2)CC1 4.72

API: the following record is the query input.
Give the reported value of pIC50 for this record: CO[C@H]1C[C@@H]2CC[C@@H](C)[C@@](O)(O2)C(=O)C(=O)N2CCCC[C@H]2C(=O)O[C@H]([C@H](C)C[C@@H]2CC[C@@H](OCCO)[C@H](OC)C2)CC(=O)[C@H](C)/C=C(\C)[C@@H](O)[C@@H](OC)C(=O)[C@H](C)C[C@H](C)/C=C/C=C/C=C/1C 4.80

----------
tested on: HOP-62; test: Cytotoxicity against human HOP62 cells after 72 hrs by MTT assay; format: functional, cell-based; conditions: HOP-62, 72 h
measured.endpoint: pIC50
Bear in mind: pIC50 is minus log10 of a mol/L concentration; give just that figure.

Give the reported value of pIC50 for this record: Oc1ccc2oc(-c3ccccc3)cc2c1CN1CCC(N2CCCCC2)CC1 4.27

Give the reported value of pIC50 for this record: Oc1ccc2oc(Cc3ccccc3)cc2c1CN1CCC(N2CCCCC2)CC1 4.96

Give the reported value of pIC50 for this record: COc1cccc2cc(-c3nc([C@H]4CC[C@H](C(=O)O)CC4)n4ncnc(N)c34)[nH]c12 [OSI-027] 4.39

API: the following record is the query input.
Give the reported value of pIC50 for this record: CO[C@H]1C[C@@H]2CC[C@@H](C)[C@@](O)(O2)C(=O)C(=O)N2CCCC[C@H]2C(=O)O[C@H]([C@H](C)C[C@@H]2CC[C@@H](OCCO)[C@H](OC)C2)CC(=O)[C@H](C)/C=C(\C)[C@@H](O)[C@@H](OC)C(=O)[C@H](C)C[C@H](C)/C=C/C=C/C=C/1C [EVEROLIMUS] 4.72

----------
biological target: RAC-alpha serine/threonine-protein kinase (Homo sapiens); assay: Inhibition of Akt/mTOR in human 786-O cells assessed as inhibition of nuclear export of transcription factor FOXO1a
Sequence (P31749 whole entry): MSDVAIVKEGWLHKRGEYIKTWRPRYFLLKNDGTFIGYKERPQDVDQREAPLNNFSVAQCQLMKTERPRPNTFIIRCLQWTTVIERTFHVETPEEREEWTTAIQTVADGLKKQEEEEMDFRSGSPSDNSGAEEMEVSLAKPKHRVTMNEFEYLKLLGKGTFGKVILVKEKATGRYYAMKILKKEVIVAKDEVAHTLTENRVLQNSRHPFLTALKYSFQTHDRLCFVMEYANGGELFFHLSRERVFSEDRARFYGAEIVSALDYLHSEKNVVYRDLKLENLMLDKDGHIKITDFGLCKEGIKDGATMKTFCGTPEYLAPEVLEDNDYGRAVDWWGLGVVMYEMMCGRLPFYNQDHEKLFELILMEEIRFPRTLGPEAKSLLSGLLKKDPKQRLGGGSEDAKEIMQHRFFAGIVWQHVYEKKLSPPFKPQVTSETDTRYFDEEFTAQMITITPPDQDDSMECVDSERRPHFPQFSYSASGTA
measured.endpoint: pIC50
Bear in mind: pIC50 is minus log10 of a mol/L concentration; give just that figure.

Give the reported value of pIC50 for this record: CN(C)Cc1c(O)ccc2oc(Cc3ccccc3)cc12 4.70

----------
tested on: COLO 205; assay: Cytotoxicity against human COLO205 cells after 72 hrs by MTT assay; format: functional, cell-based; settings: COLO 205, 72 h
measured.endpoint: pIC50
Bear in mind: pIC50 is minus log10 of a mol/L concentration; give just that figure.

Some compounds with recorded pIC50:
Give the reported value of pIC50 for this record: COc1cccc2cc(-c3nc([C@H]4CC[C@H](C(=O)O)CC4)n4ncnc(N)c34)[nH]c12 [OSI-027] 5.24

Give the reported value of pIC50 for this record: Oc1ccc2oc(-c3ccccc3)cc2c1CN1CCC(N2CCCCC2)CC1 5.20

Give the reported value of pIC50 for this record: Oc1ccc2oc(Cc3ccccc3)cc2c1CN1CCC(N2CCCCC2)CC1 5.51

API: the following record is the query input.
Give the reported value of pIC50 for this record: CO[C@H]1C[C@@H]2CC[C@@H](C)[C@@](O)(O2)C(=O)C(=O)N2CCCC[C@H]2C(=O)O[C@H]([C@H](C)C[C@@H]2CC[C@@H](OCCO)[C@H](OC)C2)CC(=O)[C@H](C)/C=C(\C)[C@@H](O)[C@@H](OC)C(=O)[C@H](C)C[C@H](C)/C=C/C=C/C=C/1C [EVEROLIMUS] 4.70
